Let's look at some IC50 data for CREB-binding protein (Homo sapiens) that I collected from the literature.
quantity-measured: IC50 (µM)

>  <molecule>
COc1nccc(-c2cc3c(n2C)C(c2ccc(Cl)cc2)N(c2cc(Cl)c(=O)n(C)c2)C3=O)n1 (stereo not shown)

>  <system-tested>
CREB-binding protein (Homo sapiens)

>  <quantity-measured>
IC50

>  <units-of-measure>
µM

>  <relational-operator>
=

>  <reading>
1.2

$$$$
>  <molecule>
CNC(=O)c1ccc2c(c1)n(-c1cccc3cc(-c4cnn(C)c4)ncc13)c(=O)n2C

>  <system-tested>
CREB-binding protein (Homo sapiens)

>  <quantity-measured>
IC50

>  <units-of-measure>
µM

>  <relational-operator>
=

>  <reading>
0.222

$$$$
>  <molecule>
Cc1cc(N2C(=O)c3c(C(=O)N(C)C)cn(C)c3C2c2ccc(Cl)cc2)nc2c1nnn2C (stereo not shown)

>  <system-tested>
CREB-binding protein (Homo sapiens)

>  <quantity-measured>
IC50

>  <units-of-measure>
µM

>  <relational-operator>
>

>  <reading>
37

$$$$
>  <molecule>
COc1ccc(C2(C(=O)N3C[C@H](F)C[C@@H]3C(=O)Nc3ccc4c(n3)NC(=O)CO4)CCCCC2)cc1

>  <system-tested>
CREB-binding protein (Homo sapiens)

>  <quantity-measured>
IC50

>  <units-of-measure>
µM

>  <relational-operator>
=

>  <reading>
0.678

$$$$
>  <molecule>
Cc1cc(N2C(=O)c3cc(-c4cccnc4O)[nH]c3C2c2ccc(Cl)cc2)cn2c(C)nnc12 (stereo not shown)

>  <system-tested>
CREB-binding protein (Homo sapiens)

>  <quantity-measured>
IC50

>  <units-of-measure>
µM

>  <relational-operator>
=

>  <reading>
4

$$$$
>  <molecule>
Cc1cc(N2C(=O)c3c(NC(=O)OC(C)(C)C)cn(C)c3C2c2ccc(Cl)cc2)cn2c(C)nnc12 (stereo not shown)

>  <system-tested>
CREB-binding protein (Homo sapiens)

>  <quantity-measured>
IC50

>  <units-of-measure>
µM

>  <relational-operator>
=

>  <reading>
3.2

$$$$
>  <molecule>
Cc1cn(C2CN(C)C2)c2c1C(=O)N(c1cc(C)c3nnc(C)n3c1)C2c1ccc(Cl)cc1 (stereo not shown)

>  <system-tested>
CREB-binding protein (Homo sapiens)

>  <quantity-measured>
IC50

>  <units-of-measure>
µM

>  <relational-operator>
=

>  <reading>
6.3

$$$$

----------
Let's look at some pIC50 data for CREB-binding protein (Homo sapiens, UniProt Q92793) that I collected from the literature.
pIC50: −log10 of the molar value.
Assign class by pIC50: not lower than 7 means 1; lower than 7 means -1.

>  <molecule>
CNC(=O)Nc1cn(C)c2c1C(=O)N(c1cc(C)c3nnn(C)c3c1)C2c1ccc(Cl)cc1 (stereo not shown)

>  <classification>
-1

$$$$
>  <molecule>
CNC(=O)c1cn(C)c2cc(F)c(N3CCCc4cc(-c5cnn(C)c5)c(C(F)F)cc43)cc12

>  <classification>
1

$$$$
>  <molecule>
CCOC(=O)[C@]1(C)N[C@H](c2ccc(-c3c(C)noc3C)cc2)[C@@H]2C(=O)N(CC)C(=O)[C@@H]21

>  <classification>
-1

$$$$
>  <molecule>
CNC(=O)c1ccc2c(c1)c(N1CCCc3cc(-c4cnn(C)c4)c(C(F)F)cc31)nn2C1CCOCC1

>  <classification>
1

$$$$
